- Test system: Aspergillus flavus
- measurementDescription: Fungicidal activity against Aspergillus flavus ATCC 9643 after 72 hrs by serial subcultivation method
- Type: functional
- experimentalConditions: ATCC 9643, 72 h
Lab note: cut-off is 30 µM. Strictly less in MFC is yes (1). Exactly 30 µM or more is no (0).

# compound, answerLabel
data = [
    ("O=C1N/C(=N\\c2nccs2)S/C1=C\\c1c(Cl)cccc1Cl", "no (0)"),
    ("COc1ccccc1/C=C1\\S/C(=N/c2nccs2)NC1=O", "no (0)"),
    ("CN(C)c1ccc(/C=C2\\S/C(=N/c3nccs3)NC2=O)cc1", "yes (1)"),
    ("Cc1cnc(/N=C2\\NC(=O)/C(=C/c3ccc([N+](=O)[O-])cc3)S2)s1", "no (0)"),
    ("O=C1N/C(=N\\c2nc(-c3ccccc3)cs2)S/C1=C\\c1ccc(Cl)cc1", "yes (1)"),
    ("O=C1N/C(=N\\c2nccs2)S/C1=C\\c1cccc(Br)c1", "yes (1)"),
    ("O=C1N/C(=N\\c2nccs2)S/C1=C\\c1cccc(F)c1", "no (0)"),
    ("CC(=O)N1CCN(c2ccc(OCC3COC(Cn4ccnc4)(c4ccc(Cl)cc4Cl)O3)cc2)CC1 (stereo unspecified)", "no (0)"),
    ("O=C1N/C(=N\\c2nc(-c3ccccc3)cs2)S/C1=C\\c1ccccc1Cl", "yes (1)"),
    ("Cc1csc(/N=C2\\NC(=O)/C(=C/c3ccc(Cl)cc3)S2)n1", "yes (1)"),
    ("O=C1N/C(=N\\c2nccs2)S/C1=C\\c1cc(Br)ccc1O", "no (0)"),
    ("O=C1N/C(=N\\c2nccs2)S/C1=C\\c1cccc(Cl)c1Cl", "no (0)"),
    ("O=C1N/C(=N\\c2nc(-c3ccccc3)cs2)S/C1=C\\c1cccc(Cl)c1", "yes (1)"),
    ("Cc1ccc(/C=C2\\S/C(=N/c3nccs3)NC2=O)cc1", "no (0)"),
    ("c1ccc(-c2ccc(C(c3ccccc3)n3ccnc3)cc2)cc1 (stereo unspecified)", "no (0)"),
    ("O=C1N/C(=N\\c2nccs2)S/C1=C\\c1ccc(F)cc1", "no (0)"),
    ("O=C1N/C(=N\\c2nc(-c3ccccc3)cs2)S/C1=C\\c1ccccc1", "yes (1)"),
    ("Cc1csc(/N=C2\\NC(=O)/C(=C/c3ccccc3Cl)S2)n1", "yes (1)"),
    ("O=C1N/C(=N\\c2nccs2)S/C1=C\\c1ccc(Br)cc1", "yes (1)"),
    ("O=C1N/C(=N\\c2nccs2)S/C1=C\\c1ccc(Cl)cc1Cl", "no (0)"),
    ("COc1ccc(OC)c(/C=C2\\S/C(=N/c3nccs3)NC2=O)c1", "no (0)"),
]
